# MEASURED_ON: B-RAF V600E (Homo sapiens, UniProt P15056, V600E)
# Construct: expressed in transfected cells; host or cells: T-Rex 293 cells (Invitrogen #R71007)
# Sequence (P15056 whole entry V600E): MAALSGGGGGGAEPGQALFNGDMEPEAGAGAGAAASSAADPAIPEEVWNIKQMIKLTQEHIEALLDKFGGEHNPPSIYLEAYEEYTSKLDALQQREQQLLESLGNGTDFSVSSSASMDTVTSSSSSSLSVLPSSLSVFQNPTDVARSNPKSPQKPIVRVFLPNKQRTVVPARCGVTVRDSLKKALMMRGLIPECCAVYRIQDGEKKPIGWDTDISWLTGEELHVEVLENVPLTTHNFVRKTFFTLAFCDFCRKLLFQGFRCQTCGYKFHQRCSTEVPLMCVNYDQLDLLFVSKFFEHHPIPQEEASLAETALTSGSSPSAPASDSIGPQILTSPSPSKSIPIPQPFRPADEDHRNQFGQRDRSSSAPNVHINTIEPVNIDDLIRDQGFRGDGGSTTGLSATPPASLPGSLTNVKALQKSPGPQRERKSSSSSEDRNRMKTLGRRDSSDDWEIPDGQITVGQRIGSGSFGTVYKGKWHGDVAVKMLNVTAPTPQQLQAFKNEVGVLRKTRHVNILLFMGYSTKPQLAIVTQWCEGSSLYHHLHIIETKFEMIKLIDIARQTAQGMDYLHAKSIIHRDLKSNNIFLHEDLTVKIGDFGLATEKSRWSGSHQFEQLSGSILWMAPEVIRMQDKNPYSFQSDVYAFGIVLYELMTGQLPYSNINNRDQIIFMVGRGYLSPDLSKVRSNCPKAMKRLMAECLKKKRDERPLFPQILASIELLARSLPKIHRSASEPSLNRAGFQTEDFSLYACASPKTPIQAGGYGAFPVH
# METHOD_SUMMARY: Target protein degradation, assay A: T-Rex 293 cells, HA-B-RAF_V600E, 96 well format
# Type: cell-based
# SETUP_CONDITIONS: T-Rex 293 HA-B-RAF_V600E cells, 24 hours, Examples 1-82
READOUT: Dmax

Study these solved cases before continuing.
COMPOUND	READOUT	ASSAY_RESULT
N#Cc1c(NS(=O)(=O)N2CC[C@@H](F)C2)ccc(F)c1Oc1ccc2ncn(-c3ccc(N4CCN(CC5CCN(c6ccc7c(c6F)CN([C@H]6CCC(=O)NC6=O)C7=O)CC5)CC4)cc3)c(=O)c2c1 [Example 73]	Dmax	35 to 70%
N#Cc1c(NS(=O)(=O)N2CC[C@@H](F)C2)ccc(F)c1Oc1ccc2ncn(-c3ccc(N4CCN(C(=O)CC5(O)CCN(c6ccc(NC7CCC(=O)NC7=O)cc6F)CC5)CC4)nc3)c(=O)c2c1 (some centres unmarked) [Example 70]	Dmax	35 to 70%
N#Cc1c(NS(=O)(=O)N2CC[C@@H](F)C2)ccc(F)c1Oc1ccc2ncn(-c3ccc(N4CCN(CC5CCN(c6ccc7c(c6)CN(C6CCC(=O)NC6=O)C7=O)CC5)CC4)nc3)c(=O)c2c1 (some centres unmarked) [Example 3]	Dmax	≤ 35%

Exam item: Item N#Cc1c(NS(=O)(=O)N2CC[C@@H](F)C2)ccc(F)c1Oc1ccc2ncn(-c3ccn(C4CCN(CC5CCN(c6ccc7c(c6)CN(C6CCC(=O)NC6=O)C7=O)CC5)CC4)n3)c(=O)c2c1 (some centres unmarked) [Example 75] has what recorded Dmax?
Marked response: 35 to 70%

Exam item: Recorded Dmax for N#Cc1c(NS(=O)(=O)N2CC[C@@H](F)C2)ccc(F)c1Oc1ccc2ncn(C3CCN(CCN4CCN(c5ccc6c(c5)CN(C5CCC(=O)NC5=O)C6=O)CC4)CC3)c(=O)c2c1 (some centres unmarked) [Example 7] , please?
Marked response: 35 to 70%

* * *

# MEASURED_ON: B-RAF G466V (Homo sapiens, UniProt P15056, G466V)
# Construct: expressed in transfected cells; host or cells: T-Rex 293 cells (Invitrogen #R71007)
# Sequence (P15056 whole entry G466V): as the sequence (P15056 whole entry V600E) above, with G466V, E600V counted along it
# METHOD_SUMMARY: Target protein degradation, assay D: T-Rex 293 cells, HA-BRAF_G466V, 384 well format
# Assay type: cell-based
# SETUP_CONDITIONS: Assay D, T-Rex 293 HA-BRAF_G466V cells, 24 hours, Examples 83-269
Below, each entry is listed alongside its reported DC50.

COMPOUND	DC50
N#Cc1c(NS(=O)(=O)N2CC[C@@H](F)C2)ccc(F)c1Oc1ccc2ncn(-c3ccc(N4CCC(CN5CC(c6ccc7c(c6)CN([C@@H]6CCC(=O)NC6=O)C7=O)C5)CC4)cc3)c(=O)c2c1 [Example 216]	1 to 10 nM
N#Cc1c(NS(=O)(=O)N2CC[C@@H](F)C2)ccc(F)c1Oc1ccc2ncn(-c3ccc(N4CCN(CC5CCN(c6ccc7c(c6)CN([C@@H]6CCC(=O)NC6=O)C7=O)CC5)CC4)cc3)c(=O)c2c1 [Example 103]	1 to 10 nM

Then this compound:
Exam item: Give B-RAF G466V (Homo sapiens, UniProt P15056, G466V) DC50 for CCN(CC1CCN(c2ccc(-n3cnc4ccc(Oc5c(F)ccc(NS(=O)(=O)N6CC[C@@H](F)C6)c5C#N)cc4c3=O)cc2)CC1)[C@H]1C[C@@H](Oc2ccc3c(c2)CN([C@H]2CCC(=O)NC2=O)C3=O)C1 [Example 264]
Marked response: 1 to 10 nM

* * *

Here the recorded DC50 is given for each entry.
# MEASURED_ON: B-RAF G466V (Homo sapiens, UniProt P15056, G466V)
# Construct: expressed in transfected cells; host or cells: T-Rex 293 cells (Invitrogen #R71007)
# METHOD_SUMMARY: Target protein degradation, assay D: T-Rex 293 cells, HA-BRAF_G466V, 384 well format
# Type: cell-based
# SETUP_CONDITIONS: Assay D, T-Rex 293 HA-BRAF_G466V cells, 24 hours, Examples 83-269

Use these answered entries as a reference point.
COMPOUND	MEASURED_ON	DC50
N#Cc1c(NS(=O)(=O)N2CC[C@@H](F)C2)ccc(F)c1Oc1ccc2ncn(-c3ccc(N4CC(CN5CCN(C6CCN(c7ccc8c(c7)CN(C7CCC(=O)NC7=O)C8=O)CC6)CC5)C4)cc3)c(=O)c2c1 (single isomer, unassigned) [Example 197]	B-RAF G466V (Homo sapiens, UniProt P15056, G466V)	1 to 10 nM
N#Cc1c(NS(=O)(=O)N2CC[C@@H](F)C2)ccc(F)c1Oc1ccc2ncn(-c3cnc(N4CCC(CN5CC6(C5)CN(c5cccc7c5C(=O)N(C5CCC(=O)NC5=O)C7=O)C6)CC4)nc3)c(=O)c2c1 (stereo partly drawn)	B-RAF G466V (Homo sapiens, UniProt P15056, G466V)	> 30 nM
CN(CC1CCN(c2ccc(-n3cnc4ccc(Oc5c(F)ccc(NS(=O)(=O)N6CC[C@@H](F)C6)c5C#N)cc4c3=O)cn2)CC1)[C@H]1C[C@H](Oc2ccc3c(c2)C(=O)N([C@@H]2CCC(=O)NC2=O)C3=O)C1	B-RAF G466V (Homo sapiens, UniProt P15056, G466V)	1 to 10 nM
N#Cc1c(NS(=O)(=O)N2CC[C@@H](F)C2)ccc(F)c1Oc1ccc2ncn(-c3ccc(N4CCN(CC5CCN(c6cc7c(c(OC(F)(F)F)c6)C(=O)N(C6CCC(=O)NC6=O)C7)CC5)CC4)cc3)c(=O)c2c1 (stereo partly drawn)	B-RAF G466V (Homo sapiens, UniProt P15056, G466V)	10 to 30 nM

Exam item: I'd like to know its DC50. The compound in question is N#Cc1c(NS(=O)(=O)N2CC[C@@H](F)C2)ccc(F)c1Oc1ccc2ncn(-c3ccc(N4CCN(CCN5CCN(c6ccc(C7CCC(=O)NC7=O)cc6F)CC5)CC4)cc3)c(=O)c2c1 (stereo partly drawn)
Marked response: 1 to 10 nM

Exam item: GET /values?readout=DC50&item= N#Cc1c(NS(=O)(=O)N2CC[C@@H](F)C2)ccc(F)c1Oc1ccc2ncn(-c3ccc(N4CCC(CN5CCC6(CC5)CCN(c5ccc7c(c5)C(=O)N(C5CCC(=O)NC5=O)C7=O)CC6)CC4)nc3)c(=O)c2c1 (stereo partly drawn)
Marked response: 1 to 10 nM

Exam item: # get_value(readout='DC50', item= `N#Cc1c(NS(=O)(=O)N2CC[C@@H](F)C2)ccc(F)c1Oc1ccc2ncn(-c3ccc(N4CCC(CN5CC(c6ccc([C@@H]7CCC(=O)NC7=O)cc6F)C5)CC4)cc3)c(=O)c2c1` )
Marked response: > 30 nM

Exam item: Param item = N#Cc1c(NS(=O)(=O)N2CC[C@@H](F)C2)ccc(F)c1Oc1ccc2ncn(-c3ccc(N4CCC(CN5CCC(Oc6cccc7c6C(=O)N(C6CCC(=O)NC6=O)C7=O)CC5)CC4)nc3)c(=O)c2c1 (stereo partly drawn) ; retrieve measured DC50.
Marked response: > 30 nM

Exam item: Item N#Cc1c(NS(=O)(=O)N2CC[C@@H](F)C2)ccc(F)c1Oc1ccc2ncn(-c3ccc(N4CCN(c5ccc(C(=O)NC6CCC(=O)NC6=O)c(F)c5)CC4)nc3)c(=O)c2c1 (stereo partly drawn) has what recorded DC50?
Marked response: ≤ 1 nM

* * *

Readings of DC50 for the listed compounds
# MEASURED_ON: B-RAF G466V (Homo sapiens, UniProt P15056, G466V)
# Construct: expressed in transfected cells; host or cells: T-Rex 293 cells (Invitrogen #R71007)
# METHOD_SUMMARY: Target protein degradation, assay D: T-Rex 293 cells, HA-BRAF_G466V, 384 well format
# Format: cell-based
# SETUP_CONDITIONS: Assay D, T-Rex 293 HA-BRAF_G466V cells, 24 hours, Examples 83-269

COMPOUND	MEASURED_ON	DC50
N#Cc1c(NS(=O)(=O)N2CC[C@@H](F)C2)ccc(F)c1Oc1ccc2ncn(-c3ccc(N4CCN(CC5CCN(c6ccc(N7CCC(=O)NC7=O)c(F)c6)CC5)CC4)nc3)c(=O)c2c1	B-RAF G466V (Homo sapiens, UniProt P15056, G466V)	≤ 1 nM
N#Cc1c(NS(=O)(=O)N2CC[C@@H](F)C2)ccc(F)c1Oc1ccc2ncn(-c3ccc(N4CC(CC5CN(c6ccc7c(c6)C(=O)N(C6CCC(=O)NC6=O)C7=O)C5)C4)nc3)c(=O)c2c1 (stereo partly drawn)	B-RAF G466V (Homo sapiens, UniProt P15056, G466V)	1 to 10 nM
N#Cc1c(NS(=O)(=O)N2CC[C@H](F)C2)ccc(F)c1Oc1ccc2ncn(-c3ccc(N4CCN(CC5CN(c6ccc7c(c6)CN([C@@H]6CCC(=O)NC6=O)C7=O)C5)CC4)cc3)c(=O)c2c1	B-RAF G466V (Homo sapiens, UniProt P15056, G466V)	1 to 10 nM
CCN(C)S(=O)(=O)Nc1ccc(F)c(Oc2ccc3ncn(-c4ccc(N5CCN(CC6CN(c7ccc8c(c7)CN(C7CCC(=O)NC7=O)C8=O)C6)CC5)cc4)c(=O)c3c2)c1C#N (stereo not drawn)	B-RAF G466V (Homo sapiens, UniProt P15056, G466V)	1 to 10 nM
N#Cc1c(NS(=O)(=O)N2CC[C@@H](F)C2)ccc(F)c1Oc1ccc2ncn(-c3ccc(N4CCN(CC5CCN(c6ccc(C7CCC(=O)NC7=O)nc6)CC5)CC4)cc3)c(=O)c2c1 (stereo partly drawn)	B-RAF G466V (Homo sapiens, UniProt P15056, G466V)	1 to 10 nM
N#Cc1c(NS(=O)(=O)N2CC[C@@H](F)C2)ccc(F)c1Oc1ccc2ncn(-c3ccc(C4CCN([C@H]5C[C@H](OC6CCN(c7ccc8c(c7)CN(C7CCC(=O)NC7=O)C8=O)CC6)C5)CC4)cc3)c(=O)c2c1 (stereo partly drawn)	B-RAF G466V (Homo sapiens, UniProt P15056, G466V)	1 to 10 nM
CN(c1ccc2c(c1)CN([C@H]1CCC(=O)NC1=O)C2=O)C1CCC2(CC1)CCN(CC1CCN(c3ccc(-n4cnc5ccc(Oc6c(F)ccc(NS(=O)(=O)N7CC[C@@H](F)C7)c6C#N)cc5c4=O)cc3)CC1)CC2	B-RAF G466V (Homo sapiens, UniProt P15056, G466V)	1 to 10 nM
N#Cc1c(NS(=O)(=O)N2CC[C@@H](F)C2)ccc(F)c1Oc1ccc2ncn(-c3ccc(N4CCC5(CC4)CN(CC4CCN(c6ccc7c(c6)CN([C@H]6CCC(=O)NC6=O)C7=O)CC4)C5)cc3)c(=O)c2c1	B-RAF G466V (Homo sapiens, UniProt P15056, G466V)	1 to 10 nM

Please examine the following record next.
Exam item: So what's the measured DC50 for this one? N#Cc1c(NS(=O)(=O)N2CC[C@@H](F)C2)ccc(F)c1Oc1ccc2ncn(-c3ccc(N4CCC5(CCN(c6ccc7c(c6)C(=O)N(C6CCC(=O)NC6=O)C7=O)CC5)CC4)nc3)c(=O)c2c1 (stereo partly drawn)
Marked response: > 30 nM
